Just for reference, PubChem BioAssay AID2060899 is where these values come from.

Recorded viability, T/C, one value per entry.
- Tested on: 565726-208-R1-J5-PDC complex spheroids, growth inhibition;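 further: spheroids exposed to compounds for seven days before readout; 100% = DMSO vehicle control viability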
- measurement description: Anticancer human tumor 565726-208-R1-J5-PDC patient-derived pancreatic adenocarcinoma cell line growth inhibition [RAS]
- experimental conditions: second compound 0.00316 µM; first compound 1 µM; active compounds read low
measurement kind: viability, T/C (%)

compound	target system	display unit	measured result
CC(=O)OC12COC1CC(O)C1(C)C(=O)C(O)C3=C(C)C(OC(=O)C(O)C(NC(=O)OC(C)(C)C)c4ccccc4)CC(O)(C(OC(=O)c4ccccc4)C21)C3(C)C (stereo not given) + C=CC(=O)N1CCN(c2nc(OCC3CCCN3C)nc3c(F)c(-c4nc(N)cc(C)c4C(F)(F)F)c(Cl)cc23)C(C)C1	565726-208-R1-J5-PDC complex spheroids, growth inhibition	%	19.4
CC(C)NCC(C(=O)N1CCN(c2ncnc3c2C(C)CC3O)CC1)c1ccc(Cl)cc1 (stereo not given) + C=CC(=O)N1CCN(c2nc(OCC3CCCN3C)nc3c(F)c(-c4nc(N)cc(C)c4C(F)(F)F)c(Cl)cc23)C(C)C1	565726-208-R1-J5-PDC complex spheroids, growth inhibition	%	91
O=C(c1ccc(F)c(F)c1Nc1ccc(I)cc1F)N1CC(O)([C@@H]2CCCCN2)C1 + C=CC(=O)N1CCN(c2nc(OCC3CCCN3C)nc3c(F)c(-c4nc(N)cc(C)c4C(F)(F)F)c(Cl)cc23)C(C)C1	565726-208-R1-J5-PDC complex spheroids, growth inhibition	%	39.1
Nc1ccn(C2OC(CO)C(O)C2(F)F)c(=O)n1 (stereo not given) + C=CC(=O)N1CCN(c2nc(OCC3CCCN3C)nc3c(F)c(-c4nc(N)cc(C)c4C(F)(F)F)c(Cl)cc23)C(C)C1	565726-208-R1-J5-PDC complex spheroids, growth inhibition	%	39
NC1c2ccccc2OC12CCN(c1cnc3c(N4CCCc5ncccc54)n[nH]c3n1)CC2 (stereo not given) + C=CC(=O)N1CCN(c2nc(OCC3CCCN3C)nc3c(F)c(-c4nc(N)cc(C)c4C(F)(F)F)c(Cl)cc23)C(C)C1	565726-208-R1-J5-PDC complex spheroids, growth inhibition	%	59.4
